- System: Listeria monocytogenes
- assay-summary: Antimicrobial activity against Listeria monocytogenes ATCC 43251 after 24 hrs by agar dilution method
- Type: functional, organism-based
Activity calls are given as the source filed them. No cut-off for these calls is given here.
Would you mind answering with one of these outcomes? 1 = active, -1 = inactive

Previously resolved entries follow.
>  <smiles>
CC1(C)S[C@@H]2[C@H](NC(=O)[C@H](N)c3ccccc3)C(=O)N2[C@H]1C(=O)O

>  <system>
Listeria monocytogenes

>  <assigned-class>
1

$$$$
>  <smiles>
O=C(Cn1nc(Cc2cccs2)n(/N=C/c2cccs2)c1=O)N/N=C/c1cccs1

>  <system>
Listeria monocytogenes

>  <assigned-class>
-1

$$$$
>  <smiles>
Nn1c(Cc2cccs2)nn(CC(=O)NNC(=S)Nc2ccc(Br)cc2)c1=O

>  <system>
Listeria monocytogenes

>  <assigned-class>
-1

$$$$
>  <smiles>
Nn1c(Cc2cccs2)nn(Cc2nnc(S)n2-c2ccc(Br)cc2)c1=O

>  <system>
Listeria monocytogenes

>  <assigned-class>
-1

$$$$

Exercise: How did this test come out for COc1ccc(/C=N/NC(=O)Cn2nc(Cc3cccs3)n(N)c2=O)cc1 ?
Key: -1

Exercise: How did this test come out for Nn1c(Cc2cccs2)nn(Cc2nnc(S)n2-c2ccccc2)c1=O ?
Key: -1

Exercise: How did this test come out for O=C(Cn1nc(Cc2cccs2)n(/N=C/c2ccccc2)c1=O)N/N=C/c1ccccc1 ?
Key: -1

Exercise: How did this test come out for CCOC(=O)Cn1nc(Cc2cccs2)n(N)c1=O ?
Key: -1

Exercise: How did this test come out for Nn1c(Cc2cccs2)nn(CC(=O)NNC(=S)Nc2ccc(F)cc2)c1=O ?
Key: -1

Exercise: How did this test come out for Nn1c(Cc2cccs2)nn(CC(=O)N/N=C/c2ccccc2)c1=O ?
Key: -1

Exercise: How did this test come out for Nn1c(Cc2cccs2)nn(CC(=O)N/N=C/c2cccnc2)c1=O ?
Key: -1

----------
The following compounds are listed with their measured MIC values.
- System: Mycolicibacterium smegmatis
- assay-summary: Antimicrobial activity against Mycobacterium smegmatis ATCC 607 after 24 hrs by agar dilution method
- Assay type: functional
- conditions: ATCC 607, 24 h
Answer with the value and then the unit.

Past entries and their recorded results:
>  <smiles>
NNC(=O)Cn1nc(Cc2cccs2)n(N)c1=O

>  <system>
Mycolicibacterium smegmatis

>  <readout-value>
994 µg/mL

$$$$
>  <smiles>
Cc1ccc(NC(=S)NNC(=O)Cn2nc(Cc3cccs3)n(N)c2=O)cc1

>  <system>
Mycolicibacterium smegmatis

>  <readout-value>
1610 µg/mL

$$$$
>  <smiles>
Nn1c(Cc2cccs2)nn(Cc2nnc(S)n2-c2ccc(Br)cc2)c1=O

>  <system>
Mycolicibacterium smegmatis

>  <readout-value>
1750 µg/mL

$$$$

MIC for Mycolicibacterium smegmatis with input Nn1c(Cc2cccs2)nn(CC(=O)NNC(=S)Nc2ccccc2)c1=O equals 1260 µg/mL

MIC for Mycolicibacterium smegmatis with input Nn1c(Cc2cccs2)nn(CC(=O)NNC(=S)Nc2ccc(Br)cc2)c1=O equals 950 µg/mL

MIC for Mycolicibacterium smegmatis with input CCOC(=O)Cn1nc(Cc2cccs2)n(N)c1=O equals 994 µg/mL

----------
The following compounds are listed with their measured Activity values.
- assay-summary: Antioxidant activity assessed as DPPH scavenging activity at 10 ug/ml after 60 mins by spectrophotometry
- Assay type: physicochemical
- conditions: 1 h
Please reply with the bare figure in % and do not write the unit itself.

Record summary for Nn1c(Cc2cccs2)nn(CC(=O)NNC(=S)Nc2ccc(F)cc2)c1=O : reported Activity = 69

Record summary for Nn1c(Cc2cccs2)nn(CC(=O)NNC(=S)Nc2ccccc2)c1=O : reported Activity = 83.4

Record summary for Nn1c(Cc2cccs2)nn(CC(=O)NNC(=S)Nc2ccc(Br)cc2)c1=O : reported Activity = 84.4

Record summary for Cc1ccc(NC(=S)NNC(=O)Cn2nc(Cc3cccs3)n(N)c2=O)cc1 : reported Activity = 88.2
